Listed below: 1 Assay (20 uM) 7A values for each entry.
TESTED_ON: PDE7A (Homo sapiens, UniProt Q13946)
Sequence (Q13946 whole entry): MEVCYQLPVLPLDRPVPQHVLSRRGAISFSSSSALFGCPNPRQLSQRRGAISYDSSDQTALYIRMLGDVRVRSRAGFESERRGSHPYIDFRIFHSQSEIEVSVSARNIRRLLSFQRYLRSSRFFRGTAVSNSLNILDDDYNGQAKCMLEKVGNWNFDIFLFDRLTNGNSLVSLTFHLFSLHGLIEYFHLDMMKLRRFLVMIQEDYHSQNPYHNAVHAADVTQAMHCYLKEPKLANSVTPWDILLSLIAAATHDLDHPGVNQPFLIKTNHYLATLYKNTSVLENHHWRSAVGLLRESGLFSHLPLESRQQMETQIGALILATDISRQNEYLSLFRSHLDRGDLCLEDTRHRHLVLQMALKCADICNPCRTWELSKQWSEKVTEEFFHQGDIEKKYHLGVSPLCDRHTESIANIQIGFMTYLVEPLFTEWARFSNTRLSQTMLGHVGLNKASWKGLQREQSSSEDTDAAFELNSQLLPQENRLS
MEASUREMENT_DESCRIPTION: 5FOA growth assay in fission yeast strain expressing PDE7A
Type: cell-based
Set-up: targets used in the assays are full-length proteins (as opposed to simply the catalytic domain); expressed in transfected cells; host or cells: Schizosaccharomyces pombe, PDE gene integrated in place of cgs2
ASSAY_CONTEXT: 20 uM
MEASURED_QUANTITY: 1 Assay (20 uM) 7A

compound=COC(=O)C1=C(C)N(C2CCCCC2)C(=O)/C1=C\c1cccs1 measured_quantity="1 Assay (20 uM) 7A" meas_value=132.82
compound=COC(=O)C1=C(C)N(c2ccccc2Cl)C(=O)/C1=C\c1cccs1 measured_quantity="1 Assay (20 uM) 7A" meas_value=2.34
compound=COC(=O)C1=C(C)N(c2ccccc2)/C(=C/c2cccs2)C1=O measured_quantity="1 Assay (20 uM) 7A" meas_value="2.43 ND ND ND ND"
compound=COC(=O)C1=C(C)N(c2ccc(C(C)C)cc2)C(=O)/C1=C\c1ccco1 measured_quantity="1 Assay (20 uM) 7A" meas_value="2.78 ND ND ND ND"
compound="COC(=O)C1/C(=C/c2cccc(OC)c2O)C(=O)N(c2ccccc2F)C1C (centres unmarked)" measured_quantity="1 Assay (20 uM) 7A" meas_value="−0.08 ND ND ND ND"

src = patent US20100227853A1
